# Tested on: MCF7
# measurementDescription: NCI tumour cell line growth inhibition, 48 h
Active and inactive are the calls of the source. No stated cut-off is given here; in the data, active = GI50 up to about 1.1 µM and inactive = higher.
# maps each entry to its GI50

compound	dataValue
N#Cc1c(C#N)c(-c2cccc([N+](=O)[O-])c2)n(-c2ccccc2)c1N	> 100 µM (inactive)

Inquiry: Please list GI50 recorded for the compound Cc1ccc(C)c(NC(=O)/C(=N\N)C(c2cnc3ccc([N+](=O)[O-])cc3n2)[N+](=O)[O-])c1 (centres undefined)
Reply text: 60.8 µM (inactive)

====

# maps each entry to its GI50
# Test system: A549
# measurementDescription: NCI tumour cell line growth inhibition, 48 h
The source made the active and inactive calls. Cut-off read from the data, not from the text of the source: active = GI50 up to about 1.1 µM and inactive = higher.

For orientation, consider the following solved cases.
molecule	dataValue
COc1ccc(/C(Cl)=C(\C=O)c2ccc(Br)cc2)cc1OC	62.5 µM (inactive)
O=C(O)CP(=O)(O)O	> 100 µM (inactive)
COc1nc2nccc-2c2occn12	> 100 µM (inactive)
COC1=CC(=O)C2C(C1=O)[C@@H]1c3ccccc3OC(C)(C)[C@H]21 (stereo partly specified)	70 µM (inactive)
O=C1CSC(c2ccc(Cl)cc2)N1c1ccc(-n2c(-c3ccccc3)nc3ccccc3c2=O)cc1 (stereo unspecified)	60.8 µM (inactive)
COc1ccc(/C(Cl)=C/c2cc(OC)ccc2OC)cc1	75.2 µM (inactive)

Moving on to the next molecule.
Inquiry: Please list GI50 recorded for the molecule `CCOC(=O)c1c2c(n(-c3ccc(OC)cc3)c1C)C(=O)C(=O)c1ccccc1-2`
Reply text: 1.51 µM (inactive)

====

# System: HCT-15
# measurementDescription: NCI tumour cell line growth inhibition, 48 h
Non-standard residues stand in square brackets, D forms with d. Residues, ends and D or L forms follow the SMILES beside them. *: point of attachment. Ac5c = NC1(C(=O)O)CCCC1; Boc = CC(C)(C)OC(=O)*; tBu = CC(C)(C)*
# maps each entry to its GI50

For orientation, consider the following solved cases.
compound	GI50
CC(=O)O[C@H]1C[C@H]2[C@@H]([C@H](OC(C)=O)C[C@@H]3CC4(CC[C@@]32C)OOC2(CCCCC2)OO4)[C@@H]2CC[C@H]([C@H](C)CCC(N)=O)[C@@]12C	2 µM
CC(C)N(C(=O)C12C3C4C1C1C4(C#N)C3C12C(=O)O)C(C)C (stereo not drawn)	> 44.7 µM

Moving on to the next compound.
Inquiry: Look up and report GI50, with HCT-15 as system, for CC(OC(C)(C)C)C(NC(=O)C(CCCCNC(=O)OC(C)(C)C)NC(=O)C(Cc1c[nH]c2ccccc12)NC(=O)C(N)Cc1ccccc1)C(=O)NC(Cc1ccccc1)C(=O)NC1(C(=O)O)CCCC1 (stereo not drawn) (H-FWK(Boc)T(tBu)F[Ac5c]-OH; configuration not given here)
Reply text: > 100 µM

====

# maps each entry to its GI50
# Test system: HT-29
# measurementDescription: NCI tumour cell line growth inhibition, 48 h
Where a name gives a salt, the structure may show the parent alone. The source made the active and inactive calls. No stated cut-off is given here; in the data, active = GI50 up to about 1.1 µM and inactive = higher.

For orientation, consider the following solved cases.
compound	dataValue
O=C(c1cc2ccccc2cc1O)N1CCCCC1	25.6 µM (inactive)
CCCOC(=O)C1CCC(=O)N1C(=O)C(C)Cl (stereo not given)	> 100 µM (inactive)
CN1[C@@H]2C[C@@H](OC(=O)[C@H](CO)c3ccccc3)C[C@H]1[C@@H]1O[C@@H]12 [SCOPOLAMINE HYDROBROMIDE]	> 100 µM (inactive)
COc1ccccc1N1C(=O)CSC1c1cc(OC)c(OC)c(OC)c1 (stereo not given)	> 100 µM (inactive)

Moving on to the next compound.
Inquiry: Please list GI50 recorded for the compound `NC(=O)C(=Cc1ccc(CP(=O)(O)O)cc1)C(N)=O`
Reply text: > 100 µM (inactive)
